Task for the reader: assign each of the following compounds its reported cell number change.
experiment: qHTS Assay for Lipid Storage Modulators in Drosophila S3 Cells; conditions: BODIPY lipid droplet fluorescence, 18-24 h, cells fed with added oleic acid; measured here: cell count max response;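 note: cells counted by Cell Tracker Red CMTPX staining in the red channel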
In all, about 320,000 compounds went through this assay and about 2,100 (0.66%) were called active. Inconclusive results (about 53%) are left out. The list comes from a sample in which actives are over-represented; it also holds close analogues and randomly drawn compounds.
Numbers only, in %.

Sample answers from the record:
O=C(c1cccc(Cl)c1)N1CCCC(C(=O)N2CCCCCC2)C1 (stereo unspecified)    -0.867
Cc1ccc(CS(=O)(=O)CC(C)(O)c2ccccc2)cc1 (stereo unspecified)    15.3
COC(=O)C1Cc2c([nH]c3ccccc23)CN1C(C)=O (stereo unspecified)    2.42
CCOc1ccc(NC(=O)CN2C(=O)CSC(C)C2=O)cc1 (stereo unspecified)    8.89
COc1ccc(OCCC(=O)OCC(=O)Nc2ccc(S(=O)(=O)N3CCOCC3)cc2)cc1    -18.9

Please look at the items below and tell me cell number change for each one, in order.
1. Cc1cc(O)ccc1NS(=O)(=O)c1ccc2c3c(cccc13)C(=O)N2
2. O=C(CCS(=O)(=O)c1ccccc1)Nc1ncc([N+](=O)[O-])s1
3. Cc1ccc(C(=O)OCC(=O)N2CCOCC2)cc1

1: -0.855; 2: -3.6; 3: -0.794

State recorded cell number change for all listed compounds.
1. Nc1c(C(=O)Nc2ccccc2)sc2nc3c(c(-c4ccco4)c12)CCCC3
2. CCn1nc(NS(=O)(=O)c2ccccc2)c2cc3cccc(C)c3nc21
3. Cc1ccc(CC(=O)Nc2ncc([N+](=O)[O-])s2)cc1
4. CCn1nc(NS(=O)(=O)c2ccc(F)cc2)c2cc3cccc(C)c3nc21

[-3.84, -3.04, 2.17, -26.3]

Below are 5 compounds. Give each one its cell number change.
1. O=C(CS(=O)(=O)c1ccccc1)Nc1ncc([N+](=O)[O-])s1
2. CCOC(=O)C(C(=O)OCC)N(C#N)c1nc(N(C)C)nc(N(C)C)n1
3. COc1ccc(-n2c(-c3cccc(C)c3[N+](=O)[O-])n[nH]c2=S)cc1
4. COc1cc(NC(=S)NCc2ccco2)cc(OC)c1OC
5. NC(=O)/C=C\c1cn(-c2ccccc2)nc1-c1ccc2c(c1)OCCO2

1. -6.25
2. 12.4
3. 2.37
4. -1.1
5. 13.6

// each compound listed below needs its cell number change
1. Cc1cccc2cc3c(NC(=O)C(C)(C)C)nn(CC(C)C)c3nc12
2. CCN(CC(=O)Nc1ccccc1C(F)(F)F)C(=O)CSCc1ccc(C)cc1
3. COc1ccc(Oc2coc3c(CN4CCOCC4)c(O)ccc3c2=O)cc1
4. CCCSc1nnc(CNS(=O)(=O)c2ccc(C)cc2)n1C
5. Cc1cc(C)c2c(=O)cc(C(F)(F)F)oc2n1
6. Nc1c(C(=O)NCC2CCCO2)sc2nc3c(c(-c4ccco4)c12)CC/C3=C\c1ccco1 (stereo unspecified)
7. Cc1ccccc1C(=O)c1cccn1CC(=O)NCC(C)c1ccccc1 (stereo unspecified)
8. O=C(NC1CC1)C1=C[C@H](c2ccc3c(c2)OCO3)C[C@H](OCc2ccc(CO)cc2)O1

1: -9.6; 2: 3.04; 3: 10.6; 4: -0.463; 5: 15.1; 6: 3.45; 7: -7.34; 8: 3.05
